Data provenance: ChEMBL document CHEMBL1157539

- Tested on: Plasmodium falciparum
- PROTOCOL NOTES: GSK_TCMDC: Inhibition of Plasmodium falciparum 3D7 in whole erythrocytes, using parasite LDH activity as an index of growth.
- Assay type: functional, organism-based
- MEASUREMENT CONTEXT: Plasmodium falciparum, 3D7
We begin with a simple list: items and their reported XC50.
Write it as a number; the unit nM goes unstated.

Example entries and their recorded answers appear below.
INSERT INTO results (molecule, test_system, readout_units, readout_value) VALUES
  ('CC1(C)N=C(N)N=C(N)N1OCc1ccc2ccccc2c1', 'Plasmodium falciparum', 'nM', 3.2),
  ('O=c1cc(NCCCCNCc2ccc(Br)c(Br)c2)[nH]c2ccccc12', 'Plasmodium falciparum', 'nM', 856),
  ('FC(F)(F)c1ccc2[nH]c(-c3ccc(-c4ccc(CNCc5ccccc5)cc4)cc3)nc2c1', 'Plasmodium falciparum', 'nM', 143),
  ('CCCC1N=C(N)N=C(N)N1c1cccc(C(F)(F)F)c1 (stereo not given)', 'Plasmodium falciparum', 'nM', 594),
  ('O=c1cc(NCCCNC2CCCc3c2ccc2ccccc32)[nH]c2ccccc12 (stereo not given)', 'Plasmodium falciparum', 'nM', 824),
  ('COc1cccc(/C=C/C(=O)NC2CCC(CN3CCC(c4c[nH]c5ccccc45)CC3)CC2)c1 (stereo not given)', 'Plasmodium falciparum', 'nM', 765),
  ('CN(C)CCCOc1cc(NC(=O)Nc2ccc(-c3ccncc3)c3ccccc23)ccc1I', 'Plasmodium falciparum', 'nM', 699),
  ('CC[C@H]1CN2CC[C@@H]1C[C@H]2[C@H](O)c1cc(-c2c(C)noc2C)nc2ccc(OC)cc12', 'Plasmodium falciparum', 'nM', 33);

Tell me the measured XC50 of O=C(Cn1c(CCc2cccc(F)c2F)cc(=O)c2ccccc21)N(Cc1ccc(-c2ccc(C(F)(F)F)cc2)cc1)C1CCN(CCN2CCOCC2)CC1 , please.
720
